tested system: UniProt:Q99MI5
Sequence (Q99MI5 whole entry): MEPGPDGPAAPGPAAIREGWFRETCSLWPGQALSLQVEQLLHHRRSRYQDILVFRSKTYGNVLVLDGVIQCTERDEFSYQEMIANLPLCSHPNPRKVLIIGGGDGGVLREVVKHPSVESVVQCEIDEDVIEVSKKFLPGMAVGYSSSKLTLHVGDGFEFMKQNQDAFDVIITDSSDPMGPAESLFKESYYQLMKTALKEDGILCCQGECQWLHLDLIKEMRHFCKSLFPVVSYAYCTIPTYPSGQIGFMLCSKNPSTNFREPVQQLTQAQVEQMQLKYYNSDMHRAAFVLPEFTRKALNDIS
measured endpoint: pIC50
Give bare numbers, as −log10 of the molar value.

Name the recorded pIC50 for CCCCCC(CC)[S+](C)C[C@H]1O[C@H](n2cnc3c(N)ncnc32)[C@H](O)[C@@H]1O (stereo partly specified) . 3.60
